Each recorded value in this set is attributed to patent US20180066066A1.

- STUDY_SYSTEM: human HER3 receptor on cells (human, UniProt P21860 20-1342)
- Sequence (P21860 20-1342): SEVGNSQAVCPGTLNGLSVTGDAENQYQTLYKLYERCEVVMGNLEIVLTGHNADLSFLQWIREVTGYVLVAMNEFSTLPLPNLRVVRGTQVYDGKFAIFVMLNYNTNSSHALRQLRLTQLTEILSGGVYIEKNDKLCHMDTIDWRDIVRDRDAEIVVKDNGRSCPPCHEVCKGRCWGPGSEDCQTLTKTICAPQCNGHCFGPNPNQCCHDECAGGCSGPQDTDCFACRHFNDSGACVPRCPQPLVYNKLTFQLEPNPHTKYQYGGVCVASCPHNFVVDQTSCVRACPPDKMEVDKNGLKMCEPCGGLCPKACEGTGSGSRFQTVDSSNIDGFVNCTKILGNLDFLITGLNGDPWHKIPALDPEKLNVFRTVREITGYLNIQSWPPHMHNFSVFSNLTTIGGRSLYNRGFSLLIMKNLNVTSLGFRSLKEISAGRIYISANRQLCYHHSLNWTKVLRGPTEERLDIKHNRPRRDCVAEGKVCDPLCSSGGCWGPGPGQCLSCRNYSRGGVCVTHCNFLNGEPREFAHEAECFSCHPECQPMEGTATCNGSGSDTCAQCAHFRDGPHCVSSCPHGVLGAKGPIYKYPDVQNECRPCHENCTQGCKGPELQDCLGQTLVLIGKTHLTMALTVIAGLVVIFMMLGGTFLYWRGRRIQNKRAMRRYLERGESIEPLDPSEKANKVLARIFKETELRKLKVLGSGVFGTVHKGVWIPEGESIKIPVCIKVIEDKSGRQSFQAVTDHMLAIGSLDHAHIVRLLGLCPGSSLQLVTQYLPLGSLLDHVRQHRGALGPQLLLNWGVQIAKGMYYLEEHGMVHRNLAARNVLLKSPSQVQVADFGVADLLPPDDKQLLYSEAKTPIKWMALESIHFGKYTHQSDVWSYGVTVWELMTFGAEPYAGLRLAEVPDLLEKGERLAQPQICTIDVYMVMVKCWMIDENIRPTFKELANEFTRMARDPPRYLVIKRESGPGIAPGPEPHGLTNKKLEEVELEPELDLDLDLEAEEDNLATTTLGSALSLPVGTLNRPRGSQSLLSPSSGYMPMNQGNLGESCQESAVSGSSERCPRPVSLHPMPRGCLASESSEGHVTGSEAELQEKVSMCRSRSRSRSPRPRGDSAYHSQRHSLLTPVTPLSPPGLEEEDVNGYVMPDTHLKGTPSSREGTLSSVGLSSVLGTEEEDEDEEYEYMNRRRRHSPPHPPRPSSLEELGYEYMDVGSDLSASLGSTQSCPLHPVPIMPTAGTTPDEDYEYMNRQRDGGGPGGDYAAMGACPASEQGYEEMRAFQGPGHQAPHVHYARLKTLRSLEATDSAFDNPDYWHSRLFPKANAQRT
- METHOD_NOTES: cell-based or functional assay
QUANTITY_NAME: pHER3 inhibition (IC50, µg/ml)
Field format: number, assumed µg/ml, no unit text.

Problem: Fill in reported pHER3 inhibition (IC50, µg/ml) for this entry: Chi46 (antibody, V domains shown, also called parental rabbit/human Fc chimera of Rab46) VH: EEQLVESGGGLVQPEGSLTLTCTASGFSFSASYYIYWVRQAPGKGLEGIAYITGDDDKRTYYANWAKGRFTISKTSTTVTLQMTSLTAADTATYFCTRNLPDELWGPGTLVTVSS VL: QAVVTQTPSSVSAAVGGTVTISCQSSESVYSYKNLAWYQQKPGQPPRLLIWQASRLSSGVSSRFSGSGSGTQFTLTISGVQCDDAATYYCQGTYYSSAWDFVFGGGTEVMVE
Result: 0.033

New cases:
Problem: Hello, please tell me recorded pHER3 inhibition (IC50, µg/ml) for this one: HER3-hMab-A14 (antibody, V domains shown) VH: QVQLVESGGGLVQPGGSLRLSCSASGFSFSSSYWICWVRQAPGKGLELIGYIWSGNGATYYASWAKGRFTISRDTSKNTVYLQMNSLRAEDTAVYFCARNYDASGYGIFHLWGPGTLVTVSS VL: DIQMTQTPSSLSASVGDRVTINCQASQSIVSSYLSWYQQKPGKPPKLLIYSASKLASGVPSRFSGSGSGTDFTLTISSLQPEDFATYYCLYGVDSSNIDNAFGGGTKVEIK
Result: 0.0017

Problem: Entry HER3-hMab-A10 (antibody, V domains shown) VH: QVQLVESGGGLVQPGGSLRLSCSASGFSFSASYYIYWVRQAPGKGLEYIAYITGDDDKRTYYANWAKGRFTISRDTSKNTVYLQMNSLRAEDTAVYYCTRNLPDELWGPGTLVTVSS VL: DIQMTQTPSTLSASVGDRVTITCQSSESVYSYKNLAWYQQKPGKPPKLLIWQASRLSSGVPSRFSGSGSGTEFTLTISSLQPDDFATYYCQGTYYSSAWDFVFGGGTKVEIK needs its pHER3 inhibition (IC50, µg/ml) filled in; supply it.
Result: 0.0173

Problem: Give the reported value of pHER3 inhibition (IC50, µg/ml) for this record: Chi1210 (antibody, V domains shown, also called parental rabbit/human Fc chimera of Rab1210) VH: QEQLEESGGGLVQPEGSLTLTCTASGFSFSSSYWICWVRQAPGKGLELIGYIWSGNGATYYASWAKGRFTISKTSSTTVTLQMTSVTATDTATYFCARNYDASGYGIFHLWGPGTLVTVSS VL: AVVMTQTPASVSAAVGGTVTINCQASQSIVSSYLSWYQQKTGQPPKLLIYSASKLASGVPPRFSGSGSGTQFTLTISGVQCDDAATYYCLYGVDSSNIDNAFGGGTEVVVK
Result: 0.0035
